B1: LINE1-mini (parent)
chain: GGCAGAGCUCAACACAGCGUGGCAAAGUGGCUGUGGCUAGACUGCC

Variants of: B1
protocolNotes: self-cleavage, relative activity (ratio to wild type); higher = more cleavage; in vitro, sequencing; the parent is a self-cleaving ribozyme
As shown below, each of these variants has a reported self-cleavage value.

| polymerSequence | self-cleavage |
| --- | --- |
| GGCAUGGCUCAACACAGCGUGGCAAAGUGGCUGUGGCUAGACUGCC [G5U A6G] | 0.07 |
| GGCAGAGCUCAACACAGCAUGGCAAAGUGGCAGUGGCUAGACUGCC [G19A U32A] | 0.15 |
| GGCAGAGCUCAACAAAGCGUGGCUAAGUGGCUGUGGCUAGACUGCC [C15A A24U] | 0.12 |
| CGCAGAGCUCAACACGGCGUGGCAAAGUGGCUGUGGCUAGACUGCC [G1C A16G] | 0.12 |
| GGCAUAGCCCAACACAGCGUGGCAAAGUGGCUGUGGCUAGACUGCC [G5U U9C] | 0.05 |
| GGCAGAGCUCAACACAGCGUGGCGAAGUGGCUGCGGCUAGACUGCC [A24G U34C] | 0.1 |
| GGUAGAGCUCAACACAGCGUGGCUAAGUGGCUGUGGCUAGACUGCC [C3U A24U] | 0.73 |
| GGCAGAGCUCCACACAGCGUGGCAAAGUGGCUGUGGCUAUACUGCC [A11C G40U] | 0.02 |
| GGCAGAGCUCAACACAGCGUGGCAAAGUGGCUGUUGCUAGACCGCC [G35U U43C] | 0.05 |
| GGCAGAGCUCAACACAGCGUGGCAAAUUGGCUGUGGCUAGUCUGCC [G27U A41U] | 0.49 |
| GCCACAGCUCAACACAGCGUGGCAAAGUGGCUGUGGCUAGACUGCC [G2C G5C] | 0.02 |
